PROPERTY: melting point

Before answering, review these 5 worked examples.
{"COMPOUND": "CC(C)c1ccc2c(c1)C(=O)c1ccc(C(=O)O)cc1CC2", "EXPERIMENTAL_RESULT": "178 to 182 °C"}
{"COMPOUND": "Cc1cc(Br)cc(/C=N/O)c1F", "EXPERIMENTAL_RESULT": "126 to 127 °C"}
{"COMPOUND": "CC(=O)C1=NN(c2ccc(C(=O)O)c(Cl)c2)C(=O)C1", "EXPERIMENTAL_RESULT": "> 250 °C"}
{"COMPOUND": "N#Cc1cc2c(cc1C(F)(F)F)[nH]c(=O)c(=O)n2OCc1ccccc1", "EXPERIMENTAL_RESULT": "265 °C"}
{"COMPOUND": "COC(=O)c1ccc2cc(O)ccc2c1", "EXPERIMENTAL_RESULT": "196 °C"}

Kindly consider the entry below.
For the compound CCCC1=C(C(=O)OCC)C(c2cccc([N+](=O)[O-])c2)C(C(=O)OCC)=C(C)N1COCC (stereo not given) , give its measured melting point value.
97 °C

###

Each entry below carries its reported melting point.

Example entries and their recorded answers appear below.
{"COMPOUND": "N#Cc1ccc(-c2cn(-c3ccc(C#N)cc3)c(SCC(O)CO)n2)cc1 (stereo not given)", "melting point": "190 to 195 °C"}
{"COMPOUND": "CCCCN(CCCC)c1ccc(C=CC=CC=CC2=C(C#N)C(=C(C#N)C#N)OC2(C)C)c(OC)c1", "melting point": "156 to 160 °C"}
{"COMPOUND": "COC(=O)C1=C(C)NC(C)=C(C(=O)OC)C1c1ccccc1Cl", "melting point": "188 to 189 °C"}
{"COMPOUND": "N#Cc1cccc(-n2c(=O)oc3ccc(-c4ccc(F)cc4F)cc3c2=O)c1", "melting point": "209 to 210 °C"}
{"COMPOUND": "CC(C=O)=CC=CC(C)=CC=CC=C(C)C1OCC(C)(C)CO1", "melting point": "140 °C"}
{"COMPOUND": "c1ccc(C2(c3ccccc3)CCSCC2)cc1", "melting point": "134 °C"}
{"COMPOUND": "COc1ccccc1C=C1N=C(c2ccccc2)OC1=O", "melting point": "159 to 161 °C"}
{"COMPOUND": "CCOc1ccc([N+](=O)[O-])c(NC23CC4CC(CC(C4)C2)C3)c1", "melting point": "147 °C"}
{"COMPOUND": "C#Cc1cc(CC)c(-c2c(O)c(C)nn(C)c2=O)c(CC)c1", "melting point": "216 to 217 °C"}

Query compound follows.
Supply melting point value. Item: COC(=O)C1OC(I)C(OC(=O)C(C)(C)C)C(OC(=O)C(C)(C)C)C1OC(=O)C(C)(C)C (stereo not given)
98 to 100 °C

###

PROPERTY: melting point

{"MOLECULE": "CC(C=CC1=C(C)C(=O)CC1(C)C)=CC=O", "melting point": "91 to 93 °C"}

# return recorded melting point for entry CCC1(C)CC(S(=O)(=O)C(Cl)(Cl)c2cccc(F)c2)=NO1 (configuration not stated)
100 °C

Return melting point for the following molecule: `N#Cc1cc([N+](=O)[O-])ccc1N1CCOCC1`
138 to 140 °C

Output melting point of `O=C(NC1CC1)c1ccc(N2CCN(Cc3cnc4c(c3)NC(=O)[C@@H]3CCCN43)CC2)cc1`
265 to 268 °C

###

PROPERTY: melting point

{"COMPOUND": "O=C(CN1C(=O)c2ccccc2C1=O)c1cc(O)c(O)c([N+](=O)[O-])c1", "EXPERIMENTAL_RESULT": "214 to 216 °C"}
{"COMPOUND": "COc1ccc(CS[C@H]2C[C@@H](C(=O)N3CCN(CCO)CC3)N(C(=O)OCc3ccc([N+](=O)[O-])cc3)C2)cc1", "EXPERIMENTAL_RESULT": "140 to 141 °C"}

Give melting point for the following compound: `N#Cc1cn(Cc2c(F)cccc2F)nn1`
116 °C

Given `CCCCCCCCCCCCNC(=S)NCCCCCCCCCCCC` , respond with its melting point.
75 to 78 °C

Please look at this compound and report its melting point: `Cc1oc2ccccc2c1C(=O)NCc1ccc2c(Br)c(OCc3nnn[nH]3)ccc2c1`
242 to 244 °C

Look up and report measured melting point for this entry: CC(O)COc1ccc2c(c1)c(-c1cc3cccnc3[nH]1)cn2C (centres undefined)
198 to 199 °C

###

Recorded measurements of melting point, one per entry

Give reported melting point value for `Cc1ccc2[nH]c(SCC(F)(F)F)nc2c1`
159 to 161 °C

Name the recorded melting point of the item `N#Cc1c(-c2ccc(Cl)cc2)c(-c2ccc(Cl)cc2)nn(CCO)c1=O` in your answer.
122 to 123 °C

Name the recorded melting point of the item `CCCCc1ccc(NC(=O)OCc2ccccc2)c(=O)n1CC(=O)OC` in your answer.
111 to 112 °C

Identify melting point associated with the molecule `CC(C)c1ccc(NC(=O)c2ccc(C(=O)O)cn2)cc1C(C)C`
188 to 190 °C

Give reported melting point value for `O=c1ncc(Cl)cn1Cn1cc(Cl)cnc1=O`
260 °C

Quickly give me recorded melting point for `CC1(C)OC(=O)Nc2ccc(-c3cccc(F)c3)cc21`
181 to 182 °C

###

PROPERTY: melting point

Past entries and their recorded results:
{"COMPOUND": "CC(=O)NCC1CC(c2ccc(-n3cccc3)c(F)c2)=NO1 (single isomer, unassigned; (-))", "melting point": "176 to 177 °C"}
{"COMPOUND": "CC(C)(C)c1cc(OCCCCc2nnn[nH]2)cc(C(C)(C)C)c1", "melting point": "140 to 141 °C"}
{"COMPOUND": "Cn1c(COc2ccc(CC3SC(=O)N(C(c4ccccc4)(c4ccccc4)c4ccccc4)C3=O)cc2)cc2ccccc21 (stereo not drawn)", "melting point": "134 to 136 °C"}
{"COMPOUND": "CC(C)OC(=O)Nc1ccc(N)c([N+](=O)[O-])c1", "melting point": "173 to 175 °C"}
{"COMPOUND": "CC(C)C(CC(O)C(CC1CCCCC1)NC(=O)C(Cc1c[nH]cn1)NC(=O)C(N)Cc1ccccc1)C(O)CN(Cc1ccccn1)C(=O)OCc1ccccc1 (mixture of isomers)", "melting point": "94 °C"}
{"COMPOUND": "O=C(O)Cc1cc(S)n2ncnc2n1", "melting point": "283 to 286 °C"}

For `O=C(NCCC12CC3CC(CC(C3)C1)C2)c1cc(-c2ccccc2C(=O)O)ccc1Cl` , write its melting point.
114 to 117 °C

State its melting point: `CCOC(=O)c1ccc(F)c(-c2cccc3cc(CBr)sc23)c1`
143 to 144 °C

Input `CCOC(=O)C1=C(C)NC(C)=C(C(=O)OCC)C1c1ccc(F)cc1` , output reported melting point.
150 to 151 °C

###

Let's look at some compounds and their measured melting point.

The examples below pair each entry with its known result.
{"CHEMICAL_STRING": "O=c1[nH]nc2ccc(S)nn12", "melting point": "> 300 °C"}
{"CHEMICAL_STRING": "COC(=O)c1cc(I)cn1[Si](C(C)C)(C(C)C)C(C)C", "melting point": "81 to 83 °C"}
{"CHEMICAL_STRING": "O=C(O)c1cccc(NCCOCc2ccccc2)c1C(=O)O", "melting point": "158 to 160 °C"}
{"CHEMICAL_STRING": "O=C(O)CCc1cn(Cc2ccc(OCc3csc(-c4ccco4)n3)cc2)cc1-c1ccccc1", "melting point": "114 to 115 °C"}

Identify melting point associated with the compound `O=C(O)CCCCCCCCCCCCC(=O)OCc1ccccc1`
73.5 to 74 °C

Please report melting point for the following compound: `COc1cc2c(Nc3ccc(Oc4cccnc4)cc3)c(C#N)cnc2cc1N1CCC(N2CCCC2)CC1`
194 to 196 °C

###

PROPERTY: melting point

Sample records with melting point:
{"COMPOUND": "O=C(CC(F)(F)F)N[C@H]1CC[C@H](CCN2CCN(c3nccc4c3CCO4)CC2)CC1", "melting point": "196 °C"}
{"COMPOUND": "COC(=O)C1=CCCN(C2CCc3ccc(OC)cc3C2)C1 (configuration not stated)", "melting point": "65 to 66 °C"}

Provide measured melting point value, entry: `Cc1c(F)c(F)c(F)c2c1c(=O)c(C(=O)O)cn2-c1ccc(O)cc1`
287 to 288 °C

Tell us which melting point value is on record for COc1cccc(OCC2CC2)c1-c1cc(C(=O)C2(C(=O)O)C3CC4CC(C3)CC2C4)nn1-c1ccnc2cc(Cl)ccc12 (configuration not stated)
200 °C

For the compound CCC(=O)C1=C(O)CC(c2ccc(Oc3ccc(S(C)(=O)=O)cc3)cc2)CC1=O (configuration not stated) , give its reported melting point.
157 to 158 °C

Tell me its melting point given `O=C(O)c1cccc(-c2ccc3c(c2)N(c2ccc(Cl)cc2Cl)CCO3)c1` as the entry.
222 to 223 °C

Annotate the compound `CCCCn1c(=O)c2c(ncn2S(=O)(=O)c2c(C)noc2C)n(CCCC)c1=O` with its measured melting point.
103 to 105 °C

Origin of values: a melting point compilation (Tetko et al.; mined from patent text by program, amines drawn as free bases though some values may be those of a salt)
